B1: library; numbered along this chain (parent)
chain: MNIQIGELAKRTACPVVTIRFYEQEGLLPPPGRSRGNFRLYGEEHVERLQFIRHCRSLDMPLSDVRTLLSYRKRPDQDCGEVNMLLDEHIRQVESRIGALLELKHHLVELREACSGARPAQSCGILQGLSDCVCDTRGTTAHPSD

Variants of: B1
assay protocol: sfGFP reporter fluorescence (15 h) (µM FITC); higher = stronger transcriptional activation
reported conditions: library round: Round 0; ligand: 30 µM Zn
# sfGFP reporter fluorescence annotations

| record sequence | sfGFP reporter fluorescence |
| --- | --- |
| MNIQIGELAKRTACPVVTIRFYEQEGLLPPPGRSRKNFRLYGEEHVERLQFIRHCRSLDMPLSDVRTLLSYRKRPDQDCGEVNMLLDEHIRQVESRIGALLELKHHLVELREACSGARPAQSCGILQGLSDCVCDTRGTTAHPSD [G36K] | 1.18 |
| MNIQIGELAKRTACPVVTIRFYEQEGLLPPPGRSRGNFRLTGEEHVERLQFIRHCRSLDMPLSDVRTLLSYRKRPDQDCGEVNMLLDEHIRQVESRIGALLELKHHLVELREACSGARPAQSCGILQGLSDCVCDTRGTTAHPSD [Y41T] | 0.0592 |
| MNIQIGELAKRTACPVVTIRFYEQEGLLPPPGRSRGNFRLYGEEHVERLQFIRHCRSLDMPLSDVRTLLSYRKRPDQDCGEVNMLLDEYIRQVESRIGALLELKHHLVELREACSGARPAQSCGILQGLSDCVCDTRGTTAHPSD [H89Y] | 0.0566 |
